- Tested on: T-47D
- Assay info: MTT test, cytotoxic activity on non-clonogenic cell lines
- Format: cell-based
- Study conditions: Homo sapiens, T47D; 10^−5 M, 72 hours of incubation, control condition = 100%, mean value; read-out: mean optical density as percentage of control, T-47D
Rule: viability at 10 µM below 90% gives True, anything at or above gives False.

Examples from the recorded data:
COc1ccc(-c2cn(C)c3cc(OC)cc(-c4ccccc4)c3c2=O)cc1 :: False
CCOC(=O)CCn1cc(-c2ccc(OC)cc2)c(=O)c2c(OC)cc(OC)cc21 :: True
COc1ccc(-c2cn(C)c3c(OC)ccc(OC)c3c2=O)cc1 :: True

Exercise: Consider COc1ccc(-c2cn(CCC#N)c3cc(OC)cc(OC)c3c2=O)cc1 . Does its viability at 10 µM lie strictly below 90%?
Solution: False

Exercise: Consider COc1ccc(-c2cn(C)c3cc(OC)cc(NCc4ccccc4)c3c2=O)cc1 . Does its viability at 10 µM lie strictly below 90%?
Solution: False

====

- Test system: SW1088
- Assay info: MTT test, cytotoxic activity on non-clonogenic cell lines
- Type: cell-based
- Study conditions: Homo sapiens, 10^−5 M, 72 hours of incubation, control condition = 100%, mean value, read-out: mean optical density as percentage of control, SW1088
Measured metric: viability at 10 µM
Report field: quantity (unit follows the number).

// worked examples, viability at 10 µM included
CCN(CC)C(=O)Cn1cc(-c2ccc(OC)cc2)c(=O)c2c(OC)ccc(OC)c21 :: 100%
COc1ccc(-c2c[nH]c3c(OC)ccc(O)c3c2=O)cc1 :: 92.5%
COc1cccc2c(=O)c(-c3ccccc3)c[nH]c12 :: 91%

Could you report viability at 10 µM for every entry in the following list?
1. COc1ccc(-c2cn(C)c3ccc(OC)cc3c2=O)cc1
2. CCOC(=O)Cn1cc(-c2ccc(OC)cc2)c(=O)c2c(OC)cc(OC)cc21
3. COc1ccc(-c2cn(C)c3cc(OC)cc(O)c3c2=O)cc1
4. COc1ccc(-c2cn(C)c3cc(OC)cc(-c4ccccc4)c3c2=O)cc1

Solution:
1: 108%; 2: 75.1%; 3: 99.8%; 4: 68.5%

====

Give viability at 10 µM for every item shown.
- Test system: T-47D
- Assay info: MTT test, cytotoxic activity on non-clonogenic cell lines
- Type: cell-based
- Study conditions: Homo sapiens, T47D; 10^−5 M, 72 hours of incubation, control condition = 100%, mean value; read-out: mean optical density as percentage of control, T-47D
Answers are plain numbers, in %.

COc1ccc(-c2c[nH]c3c(OC)ccc(OC)c3c2=O)cc1 :: 55
COc1ccc(-c2cn(C)c3c(OC)ccc(-c4ccccc4)c3c2=O)cc1 :: 77.1
COc1ccc(-c2c[nH]c3c(OC)ccc(O)c3c2=O)cc1 :: 99.3
COc1cc(OC)c2c(=O)c(-c3ccccc3)c[nH]c2c1 :: 105
COc1ccc(-c2cnc3c(OC)ccc(OC)c3c2OCCN(C)C)cc1 :: 88.5
CCOC(=O)Cn1cc(-c2ccc(OC)cc2)c(=O)c2c(OC)cc(OC)cc21 :: 82.1

Could you report viability at 10 µM for every entry in the following list?
1. CCOC(=O)Cn1cc(-c2ccc(OC)cc2)c(=O)c2c(OC)ccc(OC)c21
2. COc1ccc(-c2c[nH]c3ccccc3c2=O)cc1
3. COc1cccc2c(=O)c(-c3ccccc3)c[nH]c12

Solution:
[92.6, 79, 96]

====

Give viability at 10 µM for every item shown.
- Tested on: A-427
- Assay info: MTT test, cytotoxic activity on non-clonogenic cell lines
- Format: cell-based
- Study conditions: Homo sapiens, 10^−5 M, 72 hours incubation, MTT, mean value, read-out: mean optical density, expressed as percentage relative to the mean optical density under the control condition (100%)
One number for each entry, in %.

Could you report viability at 10 µM for every entry in the following list?
1. COc1ccc(-c2cn(CCN(C)C)c3cc(OC)ccc3c2=O)cc1
2. COc1ccc(-c2cn(C)c3cc(OC)cc(NCCN(C)C)c3c2=O)cc1
3. COc1ccc(-c2cn(C)c3cc(OC)cc(N4CCN(C)CC4)c3c2=O)cc1
4. COc1ccc(-c2cn(CCC#N)c3cc(OC)ccc3c2=O)cc1
5. CCOC(=O)CCn1cc(-c2ccc(OC)cc2)c(=O)c2ccc(OC)cc21
6. COc1ccc(-c2cn(C)c3cc(OC)ccc3c2=O)cc1

Solution:
1. 102
2. 77.1
3. 109
4. 90
5. 69.7
6. 102

Exercise: For the compound CCN(CC)c1cc(OC)cc2c1c(=O)c(-c1ccc(OC)cc1)cn2C , give its measured viability at 10 µM value.
Solution: 108

====

- System: U-87MG
- Assay info: MTT test, cytotoxic activity on non-clonogenic cell lines
- Assay type: cell-based
- Study conditions: Homo sapiens, U-87 MG; 10^−5 M, 72 hours of incubation, control condition = 100%, mean value; read-out: mean optical density as percentage of control, U-87MG
Measured metric: viability at 10 µM (%)
Numbers only, in %.

// worked examples, viability at 10 µM included
COc1ccc(-c2cn(C)c3cc(OC)cc(OC)c3c2=O)cc1 :: 87.6
COc1ccc(-c2cn(C)c3cc(OC)cc(N4CCCC4)c3c2=O)cc1 :: 89.7

Below: the item to evaluate.
Exercise: For the compound COc1ccc(-c2cn(C)c3cc(OC)cc(N4CCCCC4)c3c2=O)cc1 , give its measured viability at 10 µM value.
Solution: 92.6

====

- Test system: U-373MG
- Assay info: MTT test, cytotoxic activity on non-clonogenic cell lines
- Assay type: cell-based
- Study conditions: Homo sapiens, U373 MG; 10^−5 M, 72 hours of incubation, control condition = 100%, mean value; read-out: mean optical density as percentage of control, U-373MG
Give viability at 10 µM for every item shown.
One number for each entry, in %.

// worked examples, viability at 10 µM included
COc1ccc(-c2cn(C)c3c(OC)ccc(OC)c3c2=O)cc1 :: 42.8
COc1ccc(-c2cn(CCN(C)C)c3cc(OC)cc(OC)c3c2=O)cc1 :: 59.5
O=c1c(-c2ccccc2)c[nH]c2ccccc12 [CRL8326, 3-Phenyl-1,4-dihydro-4-quinolinone] :: 96.9
COc1ccc(OC)c2c(=O)c(-c3ccccc3)c[nH]c12 :: 54.5
COc1ccc(-c2cnc3c(OC)ccc(OC)c3c2OCCN(C)C)cc1 :: 105

Could you report viability at 10 µM for every entry in the following list?
1. COc1ccc(-c2cn(CCCC#N)c3cc(OC)cc(OC)c3c2=O)cc1
2. COc1ccc(-c2c[nH]c3cc(OC)cc(OC)c3c2=O)cc1
3. COc1ccc(-c2c[nH]c3c(OC)ccc(O)c3c2=O)cc1
4. COc1ccc(-c2cn(CC#N)c3cc(OC)cc(OC)c3c2=O)cc1
5. COc1ccc(-c2cn(C)c3cc(OC)cc(N4CCCC4)c3c2=O)cc1

Solution:
1. 96.6
2. 95.6
3. 93.5
4. 94.8
5. 92.2

====

- System: T-47D
- Assay info: MTT test, cytotoxic activity on non-clonogenic cell lines
- Assay type: cell-based
- Study conditions: Homo sapiens, T47D; 10^−5 M, 72 hours of incubation, control condition = 100%, mean value; read-out: mean optical density as percentage of control, T-47D
Measured metric: viability at 10 µM

COc1ccc(-c2cn(CCN(C)C)c3c(OC)ccc(OC)c3c2=O)cc1 :: 94.7%
COc1ccc(-c2cn(C)c3cc(OC)cc(N4CCCCC4)c3c2=O)cc1 :: 97.3%
COc1ccc(-c2c[nH]c3cc(OC)ccc3c2=O)cc1 :: 92.1%

Below: the item to evaluate.
Exercise: For the molecule COc1ccc(-c2cn(C)c3cc(OC)cc(OC)c3c2=O)cc1 , give its measured viability at 10 µM value.
Solution: 66.1%

====

- Tested on: SW1088
- Assay info: MTT test, cytotoxic activity on non-clonogenic cell lines
- Type: cell-based
- Study conditions: Homo sapiens, 10^−5 M, 72 hours of incubation, control condition = 100%, mean value, read-out: mean optical density as percentage of control, SW1088
Measured metric: viability at 10 µM (%)
Answers are plain numbers, in %.

// worked examples, viability at 10 µM included
COc1ccc(-c2cn(C)c3c(OC)ccc(O)c3c2=O)cc1 [CRL8392] :: 89.8
COc1ccc(-c2cn(CC#N)c3cc(OC)cc(OC)c3c2=O)cc1 [CRL8372] :: 98.1
COc1ccc(-c2cn(CCC#N)c3cc(OC)cc(OC)c3c2=O)cc1 [CRL8412] :: 105

Could you report viability at 10 µM for every entry in the following list?
1. COc1ccc(-c2cn(C)c3cc(OC)cc(N4CCOCC4)c3c2=O)cc1 [CRL8435]
2. COc1cc(OC)c2c(=O)c(-c3ccccc3)c[nH]c2c1 [CRL8352]
3. COc1ccc(-c2cn(CCCC#N)c3cc(OC)cc(OC)c3c2=O)cc1 [CRL8420]
4. COc1ccc(OC)c2c(=O)c(-c3ccccc3)c[nH]c12 [CRL8353]

Solution:
1: 97.3; 2: 96.8; 3: 117; 4: 74

Could you report viability at 10 µM for every entry in the following list?
1. COc1ccc(-c2c[nH]c3cc(OC)cc(OC)c3c2=O)cc1 [CRL8337]
2. COc1ccc(-c2c[nH]c3cc(OC)c(OC)cc3c2=O)cc1 [CRL8354]
3. COc1ccc(-c2c[nH]c3cc(OC)ccc3c2=O)cc1 [CRL8358]
4. O=c1c(-c2ccccc2)c[nH]c2ccccc12 [CRL8326, 3-Phenyl-1,4-dihydro-4-quinolinone]
5. COc1ccc(-c2cn(C)c3c(OC)ccc(OC)c3c2=O)cc1 [CRL8371]
6. COc1ccc(-c2cn(C)c3cc(OC)cc(N4CCCC4)c3c2=O)cc1 [CRL8434]
7. COc1ccc(-c2c[nH]c3ccccc3c2=O)cc1 [CRL8327]

Solution:
1: 84.9; 2: 93.2; 3: 98.3; 4: 108; 5: 40.8; 6: 99.9; 7: 99
